- target system: HCV p7 (Hepatitis C virus genotype 1a)
- Construct: expressed in transfected cells
- Sequence (P27958 747-809): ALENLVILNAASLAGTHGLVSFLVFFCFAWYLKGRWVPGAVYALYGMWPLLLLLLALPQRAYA
- experiment notes: Bacterial bioassay, HCV p7
- Type: cell-based
- Parameters: scale not given here
- condition notes: mean bacterial bioassay score; p7 of HCV

| compound | Average Bacterial Assay Score, HCV p7 |
| --- | --- |
| N=C(N)NC(=O)C=Cc1cc(Br)ccc1F [BIT124, 5-bromo-2-fluorocinnamoylguanidine, reference compound] | 2.25 |
| Cc1cccc2cc(C(=O)NC(=N)N)ccc12 | 1.7 |
| N=C(N)NC(=O)/C=C/c1cccc2c1CCC2 | 2.0 |
| N=C(N)NC(=O)c1ccc2c(-c3ccccc3Cl)cccc2c1 | 0.80 |

Hey, just so you know, these numbers are from patent US9440926B2.
